Overview of reported CC50 at 3 days across a group of compounds:
# assay.comment: CC50 assay (CellTiter-Glo) in Huh-7 HCV replicon cells
# Assay type: cell-based
# experimental.context: human, Table 2, 3 days incubation
reported.property: CC50 at 3 days

>>> assay_value("C[C@@H](Nc1nc(NC2(C(F)(F)F)CC2)c2nc(-c3cnc(NC4CC4)c(F)c3)ccc2n1)c1ccc(-n2cncn2)cc1")
"1 to 10 µM"
>>> assay_value("c1ncn(-c2ccc(CNc3nc(OC4CC4)c4nc(-c5cnc(OC6CC6)nc5)ccc4n3)cc2)n1")
"> 10 µM"
>>> assay_value("CS(=O)(=O)c1cccc(-c2ccc3nc(NCCO)nc(NCC(F)(F)F)c3n2)c1")
"> 10 µM"
>>> assay_value("COc1ccc(-c2ccc3nc(NC(C)c4ccc(-n5cncn5)cc4)nc(NC4(C(F)(F)F)CC4)c3n2)cc1S(C)(=O)=O (stereo not shown)")
"> 10 µM"
>>> assay_value("CS(=O)(=O)c1cccc(-c2ccc3nc(NC4CC4)nc(NCC(F)(F)F)c3n2)c1")
"> 10 µM"
>>> assay_value("CC(Cn1cncn1)Nc1nc(NC2(C(F)(F)F)CC2)c2nc(-c3ccc(NC4CC4)nc3)ccc2n1 (stereo not shown)")
"> 10 µM"
>>> assay_value("CC(C)Oc1nc(NCc2ccc(-n3cncn3)cc2)nc2ccc(C#CC3CC3)nc12")
"> 10 µM"
>>> assay_value("COc1ccc(-c2ccc3nc(NCc4ccc(S(N)(=O)=O)cc4)nc(NC4(C(F)(F)F)CC4)c3n2)cc1C(F)(F)F")
"> 10 µM"
>>> assay_value("COc1ccc(-c2ccc3nc(NCc4cccc(-n5cccn5)c4)nc(NCC(F)(F)F)c3n2)cc1S(C)(=O)=O")
"1 to 10 µM"
>>> assay_value("Cc1cc(S(N)(=O)=O)c(C)cc1CNc1nc(NC2(C(F)(F)F)CC2)c2nc(-c3ccc(F)cc3)ccc2n1")
"> 10 µM"
>>> assay_value("c1ncn(-c2ccc(CNc3nc(OC4CC4)c4nc(-c5ccc(OC6CCC6)nc5)ccc4n3)cc2)n1")
"1 to 10 µM"
>>> assay_value("NS(=O)(=O)c1cc(F)cc(CNc2nc(NC3(C(F)(F)F)CC3)c3nc(-c4ccc(F)nc4)ccc3n2)c1")
"> 10 µM"
>>> assay_value("[2H]C([2H])([2H])C([2H])([2H])Oc1ccc(-c2ccc3nc(N[C@H](C)c4ccc(-n5cncn5)cc4)nc(NCC(F)(F)F)c3n2)cn1")
"1 to 10 µM"
>>> assay_value("C#Cc1ccc2nc(N[C@H](C)c3ccc(S(N)(=O)=O)cc3)nc(OC3CCC3)c2n1")
"1 to 10 µM"
>>> assay_value("CC1(Oc2nc(NCc3ccc(-n4cncn4)cc3)nc3ccc(-c4cnc(OC5CC5)nc4)nc23)CC1")
"1 to 10 µM"
>>> assay_value("CS(=O)(=O)c1cccc(-c2ccc3nc(NCc4ccc(-n5cncn5)cc4)nc(NCC(F)(F)F)c3n2)c1")
"> 10 µM"
>>> assay_value("C[C@@H](Nc1nc(NCC(F)(F)F)c2nc(C#Cc3cncs3)ccc2n1)c1ccc(S(N)(=O)=O)cc1")
"> 10 µM"
>>> assay_value("CC(C)Oc1nc(NCc2ccc(-n3cncn3)cc2)nc2ccc(-c3ccc(OC(F)F)c(S(C)(=O)=O)c3)nc12")
"> 10 µM"
>>> assay_value("Cc1ccc(-c2ccc3nc(NCc4ccc(S(N)(=O)=O)cc4)nc(NC4(C(F)(F)F)CC4)c3n2)cc1S(C)(=O)=O")
"1 to 10 µM"
>>> assay_value("N#Cc1cc(CNc2nc(NC3(C(F)(F)F)CC3)c3nc(-c4ccc(F)cc4)ccc3n2)cc(S(N)(=O)=O)c1")
"> 10 µM"
>>> assay_value("C[C@@H](Nc1nc(NC2(C(F)(F)F)CC2)c2nc(C#CC3CC3)ccc2n1)c1ccc(S(N)(=O)=O)cc1")
"> 10 µM"
>>> assay_value("Cc1ccc(-c2ccc3nc(N[C@H](C)c4ccc(S(N)(=O)=O)cc4)nc(NCC(F)(F)F)c3n2)cc1S(C)(=O)=O")
"> 10 µM"
>>> assay_value("CC(C)Oc1ccc(-c2ccc3nc(NCc4ccc(-n5cccn5)cc4)nc(NCC(F)(F)F)c3n2)cn1")
"1 to 10 µM"
>>> assay_value("NS(=O)(=O)c1ccc(Cl)c(CNc2nc(NC3(C(F)(F)F)CC3)c3nc(-c4ccc(F)cc4)ccc3n2)c1")
"1 to 10 µM"
>>> assay_value("CS(=O)(=O)c1cccc(CNc2nc(NCC(F)(F)F)c3nc(-c4ccc(OC(F)F)c(S(C)(=O)=O)c4)ccc3n2)c1")
"< 1 µM"
>>> assay_value("CS(=O)(=O)c1cc(-c2ccc3nc(NCc4cccnc4)nc(NCC(F)(F)F)c3n2)ccc1OC(F)F")
"1 to 10 µM"
>>> assay_value("COCC#Cc1ccc2nc(NCc3ccc(S(N)(=O)=O)cc3)nc(NCC(F)(F)F)c2n1")
"> 10 µM"
>>> assay_value("NS(=O)(=O)c1cc(CNc2nc(NC3(C(F)(F)F)CC3)c3nc(C#CC4CC4)ccc3n2)cc(C(F)(F)F)c1")
"> 10 µM"

---

# assay.comment: CC50 assay (CellTiter-Glo) in Huh-7 HCV replicon cells
# Assay type: cell-based
# experimental.context: human, Table 2, 3 days incubation
reported.property: CC50 at 3 days

>>> assay_value("C#Cc1ccc2nc(N[C@H](C)c3ccc(S(N)(=O)=O)cc3)nc(OC(C)C)c2n1")
"< 1 µM"
>>> assay_value("N#Cc1cc(F)ccc1-c1ccc2nc(NCc3cccc(S(N)(=O)=O)c3)nc(NC3(C(F)(F)F)CC3)c2n1")
"1 to 10 µM"
>>> assay_value("N#Cc1cc(F)ccc1-c1ccc2nc(NCc3cc(C(F)(F)F)cc(S(N)(=O)=O)c3)nc(NC3(C(F)(F)F)CC3)c2n1")
"1 to 10 µM"
>>> assay_value("CC#Cc1ccc2nc(NCc3cc(Cl)cc(S(N)(=O)=O)c3)nc(OC3(C)CC3)c2n1")
"> 10 µM"
>>> assay_value("CC(C)(C)Oc1nc(NCc2ccc(-n3cncn3)cc2)nc2ccc(-c3cccc(S(C)(=O)=O)c3)nc12")
"> 10 µM"
>>> assay_value("O=C1NCCN1c1ccc(-c2ccc3nc(NCc4ccc(-n5cncn5)cc4)nc(NC4(C(F)(F)F)CC4)c3n2)cc1")
"< 1 µM"
>>> assay_value("CS(=O)(=O)c1cccc(CNc2nc(NC3(C(F)(F)F)CC3)c3nc(-c4ccc(F)cc4C#N)ccc3n2)c1")
"> 10 µM"
>>> assay_value("Cc1ccc(-c2ccc3nc(NCc4cccc(S(C)(=O)=O)c4)nc(NCC(F)(F)F)c3n2)cc1S(C)(=O)=O")
"1 to 10 µM"
>>> assay_value("NS(=O)(=O)c1cc(Cl)cc(CNc2nc(NC3(C(F)(F)F)CC3)c3nc(-c4ccc(F)cc4)ccc3n2)c1")
"> 10 µM"
>>> assay_value("NS(=O)(=O)c1cc(F)cc(CNc2nc(NC3(C(F)(F)F)CC3)c3nc(-c4ccc(F)cc4)ccc3n2)c1")
"1 to 10 µM"
>>> assay_value("CCS(=O)(=O)c1cccc(-c2ccc3nc(N[C@H](C)c4ccc(-n5cncn5)cc4)nc(NCC(F)(F)F)c3n2)c1")
"1 to 10 µM"
>>> assay_value("COc1ccc(-c2ccc3nc(NCc4cccc(S(C)(=O)=O)c4)nc(NCC(F)(F)F)c3n2)cc1S(C)(=O)=O")
"1 to 10 µM"
>>> assay_value("COc1ccc(-c2ccc3nc(NCc4ccc(S(N)(=O)=O)cc4)nc(NC4(C(F)(F)F)CC4)c3n2)cc1S(C)(=O)=O")
"1 to 10 µM"
>>> assay_value("CC1(Oc2nc(NCc3ccc(-n4cncn4)cc3)nc3ccc(-c4ccc(OC5CCC5)nc4)nc23)CC1")
"1 to 10 µM"

---

# assay.comment: CC50 assay (CellTiter-Glo) in Huh-7 HCV replicon cells
# Format: cell-based
# experimental.context: human, Table 2, 3 days incubation
Overview of reported CC50 at 3 days across a group of molecules:
reported.property: CC50 at 3 days

>>> assay_value("c1ncn(-c2ccc(CNc3nc(OC4CC4)c4nc(-c5ccc(OC6CC6)nc5)ccc4n3)cc2)n1 [Example 248]")
"1 to 10 µM"
>>> assay_value("C[C@H](Nc1nc(NCc2ccc(-n3cncn3)cc2)nc2ccc(-c3cccc(S(C)(=O)=O)c3)nc12)C(F)(F)F [Example 187]")
"> 10 µM"
>>> assay_value("NS(=O)(=O)c1ccc(CNc2nc(NC3(C(F)(F)F)CC3)c3nc(-c4ccc(N5CCCS5(=O)=O)cc4)ccc3n2)cc1 [Example 130]")
"< 1 µM"
>>> assay_value("CCS(=O)(=O)c1cc(-c2ccc3nc(NCc4ccc(S(N)(=O)=O)cc4)nc(NCC(F)(F)F)c3n2)ccc1OC [Example 149]")
"> 10 µM"
>>> assay_value("FC(F)(F)CNc1nc(NCc2ccc(-n3cncn3)cc2)nc2ccc(-c3cnc(OC4CC4)nc3)nc12 [Example 253]")
"> 10 µM"
>>> assay_value("CC#Cc1ccc2nc(N[C@H](C)c3ccc(S(N)(=O)=O)cc3)nc(OC3(C)CC3)c2n1 [Example 302]")
"> 10 µM"
>>> assay_value("Fc1cc(-c2ccc3nc(NCc4ccc(-n5cncn5)cc4)nc(NC4(C(F)(F)F)CC4)c3n2)cnc1NC1CC1 [Example 65]")
"1 to 10 µM"
>>> assay_value("CCOc1ccc(-c2ccc3nc(N[C@H](C)c4ccc(-n5cncn5)cc4)nc(NCC(F)(F)F)c3n2)cc1S(N)(=O)=O [Example 265]")
"1 to 10 µM"
>>> assay_value("CS(=O)(=O)c1cc(-c2ccc3nc(NCc4ccc(S(N)(=O)=O)cc4)nc(NCC(F)(F)F)c3n2)ccc1OC(F)F [Example 164]")
"> 10 µM"
>>> assay_value("CC#Cc1ccc2nc(N[C@H](C)c3ccc(S(N)(=O)=O)cc3)nc(O[C@@H]3C[C@@H]4C[C@@H]4C3)c2n1 [Example 313]")
"> 10 µM"
>>> assay_value("NS(=O)(=O)c1ccc(CNc2nc(NC3(C(F)(F)F)CC3)c3nc(-c4cccc(C(F)(F)F)c4)ccc3n2)cc1 [Example 80]")
"1 to 10 µM"
>>> assay_value("C[C@H](Cn1cncn1)Nc1nc(NCC(F)(F)F)c2nc(-c3cccc(S(C)(=O)=O)c3)ccc2n1 [Example 168]")
"> 10 µM"
>>> assay_value("COc1ccc(-c2ccc3nc(NC(C)c4cc(F)cc(F)c4)nc(NCC(F)(F)F)c3n2)cc1S(C)(=O)=O (stereo not shown) [Example 180]")
"1 to 10 µM"
>>> assay_value("c1ncn(-c2ccc(CNc3nc(C4CC4)c4nc(-c5ccc(OC6CC6)nc5)ccc4n3)cc2)n1 [Example 267]")
"> 10 µM"
>>> assay_value("COCCNc1nc(NCC(F)(F)F)c2nc(-c3cccc(S(C)(=O)=O)c3)ccc2n1 [Example 139]")
"> 10 µM"
>>> assay_value("CC1(Oc2nc(NCc3ccc(-n4cncn4)cc3)nc3ccc(-c4ccc(OC(F)F)c(S(C)(=O)=O)c4)nc23)CC1 [Example 191]")
"> 10 µM"
>>> assay_value("CS(=O)(=O)c1cccc(-c2ccc3nc(NCCS(N)(=O)=O)nc(NCC(F)(F)F)c3n2)c1 [Example 137]")
"> 10 µM"
>>> assay_value("NS(=O)(=O)c1cc(Cl)cc(CNc2nc(NC3(C(F)(F)F)CC3)c3nc(-c4ccc(NC(=O)C5(C(F)(F)F)CC5)cc4)ccc3n2)c1 [Example 48]")
"1 to 10 µM"
>>> assay_value("NS(=O)(=O)c1ccc(CNc2nc(NC3(C(F)(F)F)CC3)c3nc(-c4cccc(N5CCCS5(=O)=O)c4)ccc3n2)cc1 [Example 51]")
"1 to 10 µM"
>>> assay_value("NS(=O)(=O)c1ccc(CNc2nc(NC3(C(F)(F)F)CC3)c3nc(-c4ccc(F)nc4)ccc3n2)cc1 [Example 96]")
"1 to 10 µM"
>>> assay_value("CC#Cc1ccc2nc(N[C@H](C)c3ccc(S(N)(=O)=O)cc3)nc(OC3CC3)c2n1 [Example 309]")
"> 10 µM"
>>> assay_value("FC(F)(F)CNc1nc(NCc2ccc(-n3cncn3)cc2)nc2ccc(C#CC3CC3)nc12 [Example 287]")
"> 10 µM"
>>> assay_value("C[C@H](Nc1nc(NCc2ccc(S(N)(=O)=O)cc2)nc2ccc(C#CC3CC3)nc12)C(F)(F)F [Example 290]")
"1 to 10 µM"
>>> assay_value("COc1ccc(-c2ccc3nc(NCc4ccc(S(N)(=O)=O)cc4)nc(NCC(F)(F)F)c3n2)cc1S(N)(=O)=O [Example 225]")
"> 10 µM"
>>> assay_value("COc1ccc(-c2ccc3nc(NCc4ccc(S(N)(=O)=O)cc4)nc(NC(C(F)(F)F)C(F)(F)F)c3n2)cc1S(C)(=O)=O [Example 151]")
"1 to 10 µM"
>>> assay_value("CC[C@@H](Nc1nc(NCC(F)(F)F)c2nc(-c3ccc(OC)c(S(C)(=O)=O)c3)ccc2n1)c1ccc(S(N)(=O)=O)cc1 [Example 154]")
"> 10 µM"
>>> assay_value("COc1ccc(-c2ccc3nc(NC(C)c4cc(F)cc(F)c4)nc(NCC(F)(F)F)c3n2)cc1S(N)(=O)=O (stereo not shown) [Example 235]")
"1 to 10 µM"
>>> assay_value("NS(=O)(=O)c1cc(CNc2nc(NC3(C(F)(F)F)CC3)c3nc(-c4ccc(F)cc4)ccc3n2)cc(C(F)(F)F)c1 [Example 26]")
"> 10 µM"
